target: T1, SLP on cells of C. difficile strain 196 (ribotype 027) (Clostridioides difficile 196 (ribotype …, UniProt A0A9R0BMB3, strain)); assay: ELISA; whole cell ELISA: formalin-fixed C. difficile cells coated on MaxiSorp plates, His6-tagged VHH at 10 μg/ml in PBS-T, 37 °C, 1 h, detected with anti-His6-HRP; details: one partner purified
T1 construct: LMW subunit of the surface layer protein (from the precursor SlpA), C. difficile strain 196, ribotype 027; HMW subunit of the surface layer protein (from the precursor SlpA), C. difficile strain 196, ribotype 027; Whole cells were the antigen; source: endogenous, on formalin-fixed C. difficile 196 cells
readout_label: binding result

These recorded examples may help you get a feel for the data.
{"columns": ["binder", "readout_label", "reported_measurement"],
 "data": [
  ["SLP_VHH5 (VHH, From an immune llama phage display library panned on QCD-32g58 SLP; source: monomeric SEC fractions for SPR; not shown: His6, C-terminal, kept) VHH: QVKLEESGGGLVQAGGSLRLSCAASRLTFSTYHMGWFRQAPGKEREFVAALSWSGGTTYYADSVKGRFGISRDNAKNTVYLQMNSLKPEDTAVYYCASGGVLATMNSDEYDYWGQGTQVTVSS", "binding result", "binds"],
  ["SLP_VHH22 (VHH, From an immune llama phage display library panned on QCD-32g58 SLP; source: monomeric SEC fractions for SPR; not shown: His6, C-terminal, kept) VHH: QVQLVESGGGLVQPGGSLRLSCAASGFTLDSYAIGWFRQAPGKEHEGISCISSNGGSTYYTDSVKGRFTISRDNAKNTVYLQMNSLESEDSAVYYCATVRRCSSLDMALGALATRTKGYDYWGQGTQVTVSS", "binding result", "binds"],
  ["SLP_VHH23 (VHH, From an immune llama phage display library panned on QCD-32g58 SLP; source: monomeric SEC fractions for SPR; not shown: His6, C-terminal, kept) VHH: QVQLVESGGGLVQAGGSLRLSCAASGRTFSSYAVGWFRQAPGKEREFVAAISWSGGYTDYADSVKGRFTISRDNAKNTVYLQMNNLKPEDTAVYYCAADWSHPENKAELLRLRLWVLSAESSDDWGQGTQVTVSS", "binding result", "binds"],
  ["SLP_VHH46 (VHH, From an immune llama phage display library panned on QCD-32g58 SLP; source: monomeric SEC fractions for SPR; not shown: His6, C-terminal, kept) VHH: QVKLEESGGGLVQAGGSLRLSCADSERTFRIYTMAWFRQAPGKERDFVAAISWSGGSTYYADSVKGRFTISRDNAKNTVYLPMNSLKPDDTAVYYCASGGVLSTGSQSDSEYDFWGQGTQVTVSS", "binding result", "binds"],
  ["SLP_VHH12 (VHH, From an immune llama phage display library panned on QCD-32g58 SLP; source: monomeric SEC fractions for SPR; not shown: His6, C-terminal, kept) VHH: QVQLVESGGGLVQAGDSLRLSCAASGGTFSSYAVGWFRQAPGKERQFVAAISWSGRSTEYADSVKGRFTISRDNAKNTVYLQMNSLQPDDTGVYYCAADWSHPENKAELLRLRLWVLSAESSDYWGQGTQVTVSS", "binding result", "binds"],
  ["SLP_VHH49 (VHH, From an immune llama phage display library panned on QCD-32g58 SLP; source: monomeric SEC fractions for SPR; not shown: His6, C-terminal, kept) VHH: QVKLEESGGGLVQAGGSLRLSCAASEGAFSDALSRHAAGWFRQAPGKEREFVAAISWNGANTDYKNSVNNRFTISRDTSKNTVYLQMNSLKPEDTAVYYCAAKNEPSWISRIYYRGLEYDYWGQGTQVTVSS", "binding result", "binds"],
  ["SLP_VHH2 (VHH, From an immune llama phage display library panned on QCD-32g58 SLP; source: monomeric SEC fractions for SPR; not shown: His6, C-terminal, kept) VHH: QVKLEESGGGLVQPGGSLRLSCAASGGTFTNYAMAWFRQTPGNDREFVGIISQKGGRTYYADSVKGRFSVSRDNAKNTAYLQMNSLKPEDTAVYYCAAGDSSYYYTRSRYDIWGQGTQVTVSS", "binding result", "binds"],
  ["SLP_VHH26 (VHH, From an immune llama phage display library panned on QCD-32g58 SLP; source: monomeric SEC fractions for SPR; not shown: His6, C-terminal, kept) VHH: QVKLEESGGGLVQAGGSLRLSCAASGRTFTNYAMAWFRQASGKEREFVAIISQSGGRTYYGDSVKGRFTISRDNAKNTVYLQLNSLQPEDTGVYYCAAGDSPYYYSRSRYDLWGPGTQVTVSS", "binding result", "binds"]
]}

Moving on to the next binder.
Please look up its binding result: SLP_VHH50 (VHH, From an immune llama phage display library panned on QCD-32g58 SLP; source: monomeric SEC fractions for SPR; not shown: His6, C-terminal, kept) VHH: QVKLEESGGGLVQPGGSLRLSCAASGFTLDYYTIGWFRQAPGKEREGVACISSDDRTYYVDSVKGRFAISRDNVKNTVYLQMNNLKPEDTAVYYCASKESVFLIATMKGCAPGHDDYWGQGTQVTVSS
binds

The origin of these recorded values is paper PMC4768215.
